Hello, the source for this data is PubChem BioAssay, in case you need it.

# testDetails: inhibitors of mutant huntingtin aggregation, primary screen, imaging, exon1htt(103Q)mCFP cells, high-content imaging (AID 483);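 also: compound exposure lasted 3 days before fixation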
# conditionLabel: exon1htt(103Q)mCFP cell line, aggregate imaging, at 2 µM; hits give high values
Activity calls are given as the source filed them.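 The calls were made as follows: active = visual image review flags a hit and inhibition of aggregation exceeds 20%; inconclusive = visual hit but inhibition at or below 20%; inactive = no hit on visual image review.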
measuredProperty: inhibition of aggregation

INSERT INTO measurements (molecule, valuemeasured) VALUES
  ('COC(=O)CC(C(=O)Nc1cc(C(=O)OC)cc(C(=O)OC)c1)N1CCN(C)CC1 (stereo unspecified)', '-3.2% (inactive)'),
  ('Cc1nnc(SCC(=O)Nc2cc(C(F)(F)F)ccc2N2CCOCC2)o1', '16.1% (inactive)'),
  ('CCOc1ccc2c(c1)c1nnc(SCC(=O)N3CCC(C)CC3)nc1n2C', '0.1% (inactive)'),
  ('CCCn1c(-c2ccc(F)cc2)cnc1SCC(=O)O', '-4.3% (inactive)'),
  ('c1ccc2ncc(-n3cnnn3)cc2c1', '7.3% (inactive)'),
  ('CCOC(=O)N1CCN(C(=O)c2ccc(CS(=O)(=O)c3c(Cl)cccc3Cl)o2)CC1', '2.1% (inactive)');

###

# assaySystem: Alpha-2C adrenergic receptor (Homo sapiens)
# testDetails: modulators of alpha2C/GIRK thallium flux, primary screen, cell-based, HEK293 alpha2C/GIRK1/2 (AID 624);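 also: slope of fluorescence ratio to pre-addition baseline per second over 15 to 24 s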
# conditionLabel: thallium flux BTC fluorescence, at 10 µM, actives lie on both sides
Decide using slope: a value greater than or equal to 0.005 is y, a smaller one is n.

INSERT INTO results (compound, assaysystem, labelvalue) VALUES
  ('COc1ccc2cc(C#N)c(SCC(=O)N3CCCC3)nc2c1', 'Alpha-2C adrenergic receptor (Homo sapiens)', 'y'),
  ('O=C(NCc1ccc2c(c1)OCO2)c1ccccn1', 'Alpha-2C adrenergic receptor (Homo sapiens)', 'y'),
  ('CC(=O)Nc1cccc(NC(=O)c2ccco2)c1', 'Alpha-2C adrenergic receptor (Homo sapiens)', 'n'),
  ('O=C(CN1CCN(Cc2ccc3c(c2)OCO3)CC1)Nc1ccc2c(c1)OCCO2', 'Alpha-2C adrenergic receptor (Homo sapiens)', 'y'),
  ('CCN(CC)CC(C)CNC(=O)CC(C(=O)N1CCc2ccccc21)n1ccnc1 (stereo unspecified)', 'Alpha-2C adrenergic receptor (Homo sapiens)', 'n'),
  ('N#CCOc1nc(N2CCOCC2)nc(N2CCOCC2)n1', 'Alpha-2C adrenergic receptor (Homo sapiens)', 'y'),
  ('OCCNCCCCOc1ccccc1F', 'Alpha-2C adrenergic receptor (Homo sapiens)', 'y'),
  ('N#Cc1c(N)nc2c(c1-c1ccncc1)CCCCC2', 'Alpha-2C adrenergic receptor (Homo sapiens)', 'n'),
  ('CCOC(=O)c1ccccc1NC(=O)CSc1nccn1C', 'Alpha-2C adrenergic receptor (Homo sapiens)', 'y'),
  ('COc1ccc(S(=O)(=O)N2CCN(c3ccc(C)cc3C)CC2)cc1OC', 'Alpha-2C adrenergic receptor (Homo sapiens)', 'y'),
  ('CCCn1nc(CC(=O)O)c2ccccc2c1=O', 'Alpha-2C adrenergic receptor (Homo sapiens)', 'y'),
  ('N#Cc1ccccc1Cn1c(=O)n(Cc2ccc(C(=O)NCc3ccco3)cc2)c(=O)c2sccc21', 'Alpha-2C adrenergic receptor (Homo sapiens)', 'y'),
  ('Cc1ccccc1Nc1cc2ccccc2c(=O)[nH]1', 'Alpha-2C adrenergic receptor (Homo sapiens)', 'n'),
  ('COc1ccc(N(CC(=O)Nc2cc(C)ccc2C)S(=O)(=O)c2c(C)nn(C)c2C)cc1', 'Alpha-2C adrenergic receptor (Homo sapiens)', 'y'),
  ('CS(=O)(=O)N1CCN(c2ccccc2NC(=O)c2cccs2)CC1', 'Alpha-2C adrenergic receptor (Homo sapiens)', 'n'),
  ('Cc1ccc(CCSCC(=O)O)cn1', 'Alpha-2C adrenergic receptor (Homo sapiens)', 'y'),
  ('CC(=O)N(C(C)=O)c1c(C#N)c(C)n(-c2ccccc2)c1C(=O)c1ccccc1', 'Alpha-2C adrenergic receptor (Homo sapiens)', 'n'),
  ('CCOc1ccc(C2C(C#N)=C(N)Oc3cc(C)n(Cc4ccco4)c(=O)c32)cc1OC (stereo unspecified)', 'Alpha-2C adrenergic receptor (Homo sapiens)', 'n'),
  ('Cn1c(=O)n(CC(=O)OCc2ccccc2)c(=O)c2c1nc1n2CCCN1C1CCCCC1', 'Alpha-2C adrenergic receptor (Homo sapiens)', 'y'),
  ('CCOC(=O)c1ccc(Oc2cc(C)nc(SC)n2)cc1', 'Alpha-2C adrenergic receptor (Homo sapiens)', 'y'),
  ('CS(=O)(=O)N(Cc1ccco1)CC(O)Cn1c2ccccc2c2ccccc21 (stereo unspecified)', 'Alpha-2C adrenergic receptor (Homo sapiens)', 'n'),
  ('CCN(CC)C(=O)Cn1c(=O)n(Cc2ccccc2Cl)c2c1c(=O)n(C)c(=O)n2C', 'Alpha-2C adrenergic receptor (Homo sapiens)', 'y'),
  ('CCn1c(SCC(=O)c2ccc(F)cc2)nnc1-c1ccoc1C', 'Alpha-2C adrenergic receptor (Homo sapiens)', 'y'),
  ('O=C(NCC1CCCO1)c1ccccc1-c1nc(-c2ccc(Cl)cc2)no1 (stereo unspecified)', 'Alpha-2C adrenergic receptor (Homo sapiens)', 'y'),
  ('Cc1cc(C)c(OCC(=O)Nc2ccc3c(c2)OCO3)cc1C', 'Alpha-2C adrenergic receptor (Homo sapiens)', 'y'),
  ('O=C(CCN1CCc2ccccc2C1)Nc1ccc2c(c1)OCO2', 'Alpha-2C adrenergic receptor (Homo sapiens)', 'n'),
  ('CCOC(=O)C(C)n1cnc2c(nnn2Cc2ccc(C)cc2)c1=O (stereo unspecified)', 'Alpha-2C adrenergic receptor (Homo sapiens)', 'n'),
  ('CCOC(=O)C1CCN(C(=O)CCCCn2c(=O)[nH]c3ccccc3c2=O)CC1', 'Alpha-2C adrenergic receptor (Homo sapiens)', 'y'),
  ('O=c1ccc2cc3c([nH]c4ccc(Br)cc43)oc-2c1O', 'Alpha-2C adrenergic receptor (Homo sapiens)', 'y'),
  ('CN1CCc2nc(SCCOc3ccccc3)c(C#N)cc2C1', 'Alpha-2C adrenergic receptor (Homo sapiens)', 'n'),
  ('CN(CC(=O)Nc1nccs1)S(=O)(=O)c1ccc(F)cc1', 'Alpha-2C adrenergic receptor (Homo sapiens)', 'y'),
  ('Cn1c(SCC(=O)O)nnc1C1CCCCC1', 'Alpha-2C adrenergic receptor (Homo sapiens)', 'y'),
  ('Cc1cc(Br)ccc1NC(=O)CNC(=O)CSc1n[nH]c(N)n1', 'Alpha-2C adrenergic receptor (Homo sapiens)', 'y'),
  ('O=C(NCc1ccco1)C1(S(=O)(=O)c2ccc(Cl)cc2)CC1', 'Alpha-2C adrenergic receptor (Homo sapiens)', 'y'),
  ('CCOCCCNC(=O)CN1CCN(Cc2ccccc2C)C1=O', 'Alpha-2C adrenergic receptor (Homo sapiens)', 'y'),
  ('C=COC(=O)CSc1snc(SCC(=O)OC)c1C#N', 'Alpha-2C adrenergic receptor (Homo sapiens)', 'y'),
  ('Cc1ccc(C2=N/C(=C/N3CCOCC3)C(=O)O2)cc1', 'Alpha-2C adrenergic receptor (Homo sapiens)', 'y'),
  ('CCOC(=O)c1ccc(N2C(=O)CC(NC3CCN(C(=O)c4ccc(F)cc4)CC3)C2=O)cc1 (stereo unspecified)', 'Alpha-2C adrenergic receptor (Homo sapiens)', 'n'),
  ('CCOC(=O)c1c(C)c(C(=O)NCCN2CCOCC2)c(C)n1C', 'Alpha-2C adrenergic receptor (Homo sapiens)', 'y'),
  ('Cc1nc2sc(C(c3ccco3)N3CCN(c4ccccc4F)CC3)c(O)n2n1 (stereo unspecified)', 'Alpha-2C adrenergic receptor (Homo sapiens)', 'y'),
  ('CCc1nc2sc3ccccc3c(=O)c2c(=O)n1Cc1ccco1', 'Alpha-2C adrenergic receptor (Homo sapiens)', 'y');

###

# testDetails: inhibitors of Sendai virus-induced IRF3 signaling, primary screen, TLR/RLR signaling modifier project, cell-based, Sendai virus stimulus, luciferase, 10K MLSCN set (AID 602276);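 also: firefly luciferase from ISG56 promoter only with Renilla not read in this screen; 0% = Sendai virus plus DMSO and 100% = medium plus DMSO without virus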
# conditionLabel: HEK293 RL24 IRF3 luciferase reporter, at 10 µM, hits give high values
Catalogue of molecules with associated inhibition
measuredProperty: inhibition (%)

INSERT INTO measurements (molecule, measuredproperty, valuemeasured) VALUES
  ('COc1cc2c(cc1OC)CN(CC(=O)Nc1cccc(C)c1)CC2', 'inhibition', 7.7),
  ('Cc1ccc(C)c(NC(=O)c2ccc3c(c2)N(Cc2ccc(F)cc2)C(=O)CS3=O)c1 (stereo unspecified)', 'inhibition', 4.49),
  ('COc1cccc(CNC(=O)Cn2c(=O)oc3ccccc32)c1OC', 'inhibition', 11.8),
  ('CCC(=O)N1CCN=C1SCc1ccc(Cl)cc1', 'inhibition', 21.3),
  ('CCOC(=O)c1ccc(NC(=O)CSc2n[nH]c(-c3ccncc3)n2)cc1', 'inhibition', -5.95),
  ('CCOC(=O)N1CCC(NC(=O)CN2C(=O)CCSc3ccccc32)CC1', 'inhibition', 4.21);

###

Catalogue of compounds with associated inhibition
# testDetails: inhibitors of TNFa-induced NFkB p65 translocation, primary screen, imaging, HUVEC, MLSMR starter and 10KST1 sets (AID 438);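 also: compound added about 3h40 before a 20 min TNFalpha stimulation; signal is the nuclear over cytoplasmic p65 intensity ratio per well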
# conditionLabel: HUVEC TNFa-induced p65 nuclear translocation; at 2 µM, hits give high values, 0% TNFa-plus-vehicle, 100% no-TNFa wells
measuredProperty: inhibition (%)

INSERT INTO assay_data (compound, measuredproperty, valuemeasured) VALUES
  ('CCOC(=O)c1c(C)oc2ccc(OCC(=O)C(C)(C)C)cc12', 'inhibition', -6),
  ('Cn1c(=O)c2c(nc(Br)n2CCSc2nnnn2-c2ccccc2)n(C)c1=O', 'inhibition', -3.4),
  ('CCOC(=O)C1=C(N)OC2=C(C(=O)CC(C)(C)C2)C1c1ccco1 (stereo not given)', 'inhibition', 1),
  ('CC1CCN(c2nc3c(c(=O)n(C)c(=O)n3C)n2Cc2ccccc2)CC1', 'inhibition', -3.5),
  ('CC(C)C(NC(=O)c1ccc(S(=O)(=O)N2CCOCC2)cc1)c1nc2ccccc2[nH]1 (stereo not given)', 'inhibition', 15.9);
